- METHOD DESCRIPTION: Intrinsic dissolution rate, rotating disk method (USP Chapter 1087)
- Type: physicochemical
- STUDY CONDITIONS: pH 7.4 medium
PROPERTY NAME: BCS solubility classification

CNC1(c2ccccc2Cl)CCCCC1=O.CNC1(c2ccccc2Cl)CCCCC1=O.O=C(O)c1cc2ccccc2c(Cc2c(O)c(C(=O)O)cc3ccccc23)c1O [R,S-ketamine pamoate salt (Amorphous, ratio 2:1)] [R, S-ketamine pamoate salt]	Low
CN[C@]1(c2ccccc2Cl)CCCCC1=O.Cl [S-ketamine HCl, S-ketamine hydrochloride, reference compound]	High
CNC1(c2ccccc2Cl)CCCCC1=O.Cl (stereo not drawn) [R-ketamine HCl, R-ketamine hydrochloride, reference compound]	High
